Measured values drawn from PubChem BioAssay AID1159580 for this set.

# assayProcedure: chemical genetic growth profiling, strain panel (AID 1159580);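 further: tested at 20 µM; growth read once vehicle control cultures reached saturation at 30 °C; 1 = growth at the plate median or of vehicle wells; lower values mean less growth of the strain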
# condition: S. cerevisiae deletion strains, growth OD, locus YNL183C, strain NPR1, active compounds read low
Among all 5,500 compounds or so, about 2,000 (36%) were called active. Inconclusive results (about 18%) are left out. Some of the results follow. Where a SMILES comes first, the peptide text is derived from it.
Exercise: for every item that follows, state its recorded normalized growth.
One number for each entry.

Cc1c(Cl)cccc1NC(=S)N1CCCN(c2nc3ccc(Cl)cc3s2)CC1: 0.989
CN1CCc2cc3c(cc2C1O)OCO3 (configuration not stated): 0.999
CC(C)(C)C1=NN(c2nc3ccc(Cl)cc3s2)C(=O)C1: 0.105
N#C/C(=C\c1ccccc1Sc1ccc(Cl)cc1)S(=O)(=O)c1ccccn1: 0.934
Oc1ccc(O)cc1: 1.03

Below are some molecules; for each one, tell me its normalized growth.
1. NC[C@@H]1O[C@H](O[C@@H]2[C@@H](CO)OC(O[C@@H]3[C@@H](O)[C@H](N)C[C@H](N)[C@H]3OC3O[C@H](CN)[C@@H](O)[C@H](O)[C@H]3N)[C@@H]2O)[C@H](N)[C@@H](O)[C@@H]1O (some centres not stated)
2. C[n+]1ccccc1/C=N\O
3. Cc1ccc(O)cc1
4. C=CC1=C(C(=O)O)N2C(=O)[C@@H](NC(=O)/C(=N/O)c3csc(N)n3)[C@H]2SC1
5. COC(=O)COc1cc(Cl)c(Cl)cc1Cl

// result
1. 0.944
2. 0.934
3. 0.951
4. 0.956
5. 0.809

Below are some molecules; for each one, tell me its normalized growth.
1. NC(N)=Nc1nc(-c2cc(Cl)sc2Cl)cs1
2. COc1cc2oc3cc(OC)c(OC)c(CC=C(C)C)c3c(=O)c2c(O)c1CC=C(C)C
3. CC(C)C[C@H](N)C(=O)N[C@@H](C)C(=O)O (H-Leu-Ala-OH)

// result
[0.988, 0.919, 0.954]
